Exercise: state measured Ki for each of the compounds provided.
Target: Alpha-1B adrenergic receptor (Rattus norvegicus, UniProt P15823)
Sequence (P15823 whole entry): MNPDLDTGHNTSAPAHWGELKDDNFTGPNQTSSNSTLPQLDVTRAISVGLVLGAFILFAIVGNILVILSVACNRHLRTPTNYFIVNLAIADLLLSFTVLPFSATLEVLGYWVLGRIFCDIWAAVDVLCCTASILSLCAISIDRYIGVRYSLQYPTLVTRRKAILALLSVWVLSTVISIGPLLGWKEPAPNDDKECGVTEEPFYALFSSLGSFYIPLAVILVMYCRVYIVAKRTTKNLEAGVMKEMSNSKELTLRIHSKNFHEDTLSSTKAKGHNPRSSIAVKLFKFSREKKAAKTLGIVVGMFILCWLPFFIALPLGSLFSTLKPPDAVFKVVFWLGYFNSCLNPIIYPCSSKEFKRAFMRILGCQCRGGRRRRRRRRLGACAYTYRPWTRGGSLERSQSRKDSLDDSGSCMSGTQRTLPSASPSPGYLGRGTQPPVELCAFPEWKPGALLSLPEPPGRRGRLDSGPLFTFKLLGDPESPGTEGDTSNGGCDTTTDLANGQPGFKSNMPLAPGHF
Experiment: DRUGMATRIX: Alpha-1B adrenergic receptor radioligand binding (ligand: prazosin)
Assay type: cell membranes, Wistar, Liver, Membrane
Details: Not Active = under 50% inhibition at 10 µM; read-out: Ki
Answers are plain numbers, in nM.

Study these solved cases before continuing.
compound="CC(CCc1ccc(O)cc1)NCCc1ccc(O)c(O)c1 (centres undefined)" unit_annotation=nM result_value=186
compound="CN1C[C@H](C(=O)N[C@]2(C)O[C@@]3(O)[C@@H]4CCCN4C(=O)[C@H](Cc4ccccc4)N3C2=O)C[C@@H]2c3cccc4[nH]cc(c34)C[C@H]21 [DIHYDROERGOTAMINE]" unit_annotation=nM result_value=4.48
compound=CCCc1nn(C)c2c(=O)[nH]c(-c3cc(S(=O)(=O)N4CCN(C)CC4)ccc3OCC)nc12 unit_annotation=nM result_value=806

So, CC(C)C[C@H]1C(=O)N2CCC[C@H]2[C@]2(O)O[C@](NC(=O)[C@@H]3C=C4c5cccc6[nH]c(Br)c(c56)C[C@H]4N(C)C3)(C(C)C)C(=O)N12 ? Its Ki was 1.96
